experiment: growth inhibitors of tim10-1 mutant yeast, primary screen, luminescence, uHTS (AID 463190);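 note: mutant grown at 25 °C; 0% = DMSO wells with yeast and 100% = wells holding no yeast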; settings: S. cerevisiae tim10-1 ts strain growth, BacTiter-Glo, 24 h; at 20 µM; active compounds read high
The campaign covered roughly 330,000 compounds. About 7,300 (2.2%) were called active. Only a selection was taken, and actives are over-represented in it overall.
Collected inhibition values appear next to each entry.
The figure you give is taken to be in %; do not add the unit.

Illustrative cases are given below, each with its answer.
> print(dat)
                                   compound  reported.endpoint  value.measured
1  Cc1ccc(NS(=O)(=O)c2ccc(C(=O)NCCCN3CCOCC3)cc2)cc1         inhibition             -36
2  Cc1cc(C)n(C(=O)c2ccc(S(=O)(=O)N3CCCC3)cc2)n1         inhibition            17.6

In plain terms, Cn1c(-c2sc3cc(C(F)(F)F)cnc3c2-c2ccccc2)n[nH]c1=S has a documented inhibition of 18.5

In plain terms, Cc1c(C)n(Cc2ccc(Cl)cc2)c2ccc(C(=O)NCCCN3CCOCC3)cc12 has a documented inhibition of 5.97

In plain terms, CCN(CC)c1ccc(C(=O)NNC(=O)CCc2nc3ccccc3c(=O)[nH]2)cc1 has a documented inhibition of 10.1

====

assay: growth inhibitors of tim10-1 mutant yeast, primary screen, luminescence, uHTS (AID 463190);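 note: mutant grown at 25 °C; 0% = DMSO wells with yeast and 100% = wells holding no yeast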; conditions: S. cerevisiae tim10-1 ts strain growth, BacTiter-Glo, 24 h; at 20 µM
Among all 330,000 compounds or so, about 7,300 (2.2%) were called active.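 The calls were made as follows: active = inhibition of at least 40%; inactive = the rest.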 Many of the other results were omitted from the sample, so actives are more common in it than they were.
Lab note: assign the record to one of Yes (active), No (inactive)

Could you please tell me the result logged for CCOc1ccc2nc(N3CCCN(C(=O)Nc4ccccc4C)CC3)c(C#N)cc2c1 in this assay? Yes

Could you please tell me the result logged for Fc1ccccc1/C=C1\CCCC2=C1Nc1ncnn1C2c1ccccc1F (stereo not drawn) in this assay? Yes

Could you please tell me the result logged for O=C(Cc1ccccn1)c1ccc(O)cc1O in this assay? No

====

assay: growth inhibitors of tim10-1 mutant yeast, primary screen, luminescence, uHTS (AID 463190);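 note: mutant grown at 25 °C; 0% = DMSO wells with yeast and 100% = wells holding no yeast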; details: S. cerevisiae tim10-1 ts strain growth, BacTiter-Glo, 24 h; at 20 µM; active compounds read high
Hit rate of the full screen: of about 330,000 compounds, about 7,300 (2.2%) were called active. The sample holds actives, similar compounds and a random draw of the others, so the mix is not that of the screen.
Collected inhibition values appear next to each entry.
The figure you give is taken to be in %; do not add the unit.

> print(dat)
                                  compound  unit.label  value.measured
1  Cc1sc2nc(CC(N)=O)[nH]c(=O)c2c1-c1ccccc1           %            6.26

In plain terms, O=C(CSc1nnc(-c2cccs2)n1Cc1ccco1)c1ccc2c(c1)OCO2 has a documented inhibition of -3.98

In plain terms, O=C(CSC(=S)N1CCOCC1)c1ccccc1 has a documented inhibition of 5.05

In plain terms, Cc1cc(Nc2ccccc2)n(C(=O)c2ccc(N)cc2)n1 has a documented inhibition of 50.1

In plain terms, CC(C)(C)c1ccc(C(=O)NNC(=O)Cc2ccccc2)cc1 has a documented inhibition of -12.1

In plain terms, Cn1cc(CN2CCCCC2c2ccccn2)c(-c2ccc3c(c2)OCCO3)n1 (stereo unspecified) has a documented inhibition of 9.13

In plain terms, CC(=O)c1cccc(NC(=O)C2CCCN(S(=O)(=O)c3cccc4nonc34)C2)c1 (stereo unspecified) has a documented inhibition of -2.16

In plain terms, COC(=O)c1cc2c(N)c(C(=O)c3ccc(Cl)cc3)sc2nc1C(OC)OC has a documented inhibition of 10.6

In plain terms, CC(C)OC(=O)c1sc2nc3c(cc2c1N)C(=O)CCC3 has a documented inhibition of -8.03

In plain terms, Cn1c(-c2sccc2OCc2cccc(C(F)(F)F)c2)n[nH]c1=S has a documented inhibition of 43.5

In plain terms, Cc1ccc2c(N)c(C(=O)c3ccccc3)sc2n1 has a documented inhibition of 41.9

// provenance: PubChem BioAssay AID463190
